Would you mind telling me the reported logP[a] of each entry?
Assay: log P by HPLC (OECD Guideline 117), method [a] acidic range
Type: physicochemical
Settings: HPLC, method [a] acidic range
Numbers only.

Some solved cases for reference:
{"columns": ["COMPOUND", "MEASURE_NAME", "ENDPOINT_VALUE"],
 "data": [
  ["Cc1cc(F)c(-n2nc(C(F)(F)F)n(N(C)C)c2=O)cc1[S+]([O-])CC(F)(F)F (centres unmarked) [Example 213]", "logP[a]", 3.16],
  ["Cc1cc(F)c(-n2nc(CC(C)C)n(C3CC3)c2=O)cc1SCC(F)(F)F [Example 83]", "logP[a]", 3.99],
  ["COCc1nn(-c2cc(SCC(F)(F)F)c(C)cc2F)c(=S)n1C1CC1 [Example 492]", "logP[a]", 3.49],
  ["Cc1cc(F)c(-n2nc(C)n(N(C)C)c2=O)cc1SCC(F)(F)F [Example 201]", "logP[a]", 3.17]
]}

Provide each entry's logP[a] from the list below.
1. COc1nn(-c2cc([S+]([O-])CC(F)(F)F)c(C)cc2F)c(=O)n1C1CC1 (single isomer, unassigned) [Example 380]
2. CCc1nn(-c2cc(SCC(F)(F)F)c(C)cc2F)c(=O)n1C1CC1 [Example 77]

[2.14, 3.24]
